- target-of-assay: Tyrosine-protein phosphatase non-receptor type 1 (Homo sapiens, UniProt P18031)
- Sequence (P18031 whole entry): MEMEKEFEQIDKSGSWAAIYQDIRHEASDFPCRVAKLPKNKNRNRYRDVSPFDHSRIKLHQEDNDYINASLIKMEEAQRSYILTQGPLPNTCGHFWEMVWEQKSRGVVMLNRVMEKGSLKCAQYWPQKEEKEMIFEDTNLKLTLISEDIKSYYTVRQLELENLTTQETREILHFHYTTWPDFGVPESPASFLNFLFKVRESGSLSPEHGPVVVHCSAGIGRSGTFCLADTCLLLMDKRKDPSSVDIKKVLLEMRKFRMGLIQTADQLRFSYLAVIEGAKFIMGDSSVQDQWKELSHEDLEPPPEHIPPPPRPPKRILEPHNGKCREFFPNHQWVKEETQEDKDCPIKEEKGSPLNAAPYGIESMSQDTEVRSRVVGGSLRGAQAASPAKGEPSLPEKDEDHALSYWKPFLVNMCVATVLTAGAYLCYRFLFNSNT
- experiment-description: Inhibition of protein tyrosine phosphatase 1B (PTP1B) activity in 3,6-fluorescein diphosphate (FDP) assay
Label MET when IC50 is strictly below 1000 µM; at or above that, label NOT MET.

Task: Confirm or reject: IC50 of "O=[N+]([O-])c1cccc(I(=O)=O)c1" lies strictly below 1000 µM
Output: NOT MET

Task: Lab log: compare recorded IC50 with 1000 µM; is it strictly lower for O=C1OI(=O)(O)c2ccccc21 (stereo unspecified) ?
Output: NOT MET

Task: Given "O=I(=O)c1c[nH]cn1" , is recorded IC50 strictly lower than 1000 µM?
Output: NOT MET

Task: Lab note: IC50 threshold 1000 µM. Does this compound come in strictly under it? "O=I(=O)c1ccccc1"
Output: NOT MET

Task: Decide: IC50 of "O=[N+]([O-])c1ccc(I(=O)=O)cc1" strictly below 1000 µM?
Output: MET

Value source: ChEMBL document CHEMBL1131920
